- Tested on: NCI-H727
- assayProcedure: Cytotoxicity against human NCI-H727 cells measured after 8 days
- Assay type: functional, cell-based
- conditions: NCI-H727, 192 h
As shown below, each of these molecules has a reported pIC50 value.
The scale used: pIC50 is minus the common logarithm of the concentration in molar units.

// known answers, use as guide
C/C=C/Cn1cc(-c2ccc(C(C)(C)O)cc2OC)c2cc[nH]c2c1=O = 4.70
C/C=C/Cn1cc(-c2ccc(C(=O)N3CCOCC3)cc2)c2cc[nH]c2c1=O = 4.70

--- query ---
Challenge: pIC50 lookup needed for `C/C=C/Cn1cc(-c2cc(OC)c(C(=O)N3CCOCC3)cc2OC)c2cc(C)[nH]c2c1=O` , thanks.
Response given: 5.70

---

- Test system: NCI-H1355
- assayProcedure: Cytotoxicity against human NCI-H1355 cells measured after 8 days
- Format: functional, cell-based
- conditions: NCI-H1355, 192 h
readoutLabel: IC50 (µM)
// units = µM; emit number, no label

Below are worked cases with known answers.
C/C=C/Cn1cc(-c2ccc(C(=O)N3CCOCC3)cc2)c2cc[nH]c2c1=O = 20
C/C=C/Cn1cc(-c2ccc(C(C)(C)O)cc2OC)c2cc[nH]c2c1=O = 20

Query compound follows.
Challenge: Look up IC50: `C/C=C/Cn1cc(-c2cc(OC)c(C(=O)N3CCOCC3)cc2OC)c2cc(C)[nH]c2c1=O`
Response given: 2

---

- assayProcedure: Cytotoxicity against human PMF-ko14 cells measured after 3 days
- Assay type: functional, cell-based
- conditions: PMF-ko14, 72 h
readoutLabel: pIC50
# reply with the number alone; pIC50 is -log10 of concentration in mol/L

Challenge: Please look up its pIC50: `C/C=C/Cn1cc(-c2cc(OC)c(C(=O)N3CCOCC3)cc2OC)c2cc(C)[nH]c2c1=O`
Response given: 5.30

---

- System: Ca-Ski
- assayProcedure: Cytotoxicity against human Ca-Ski cells measured after 8 days
- Assay type: functional, cell-based
- conditions: 192 h
Reported pIC50 values for the following compounds.
Conceptually, pIC50 converts a concentration in mol/L into minus its log10.

Challenge: Can you look up the measured pIC50 of `C/C=C/Cn1cc(-c2ccc(C(C)(C)O)cc2OC)c2cc[nH]c2c1=O` for me?
Response given: 4.70

Challenge: Param item: `C/C=C/Cn1cc(-c2ccc(C(=O)N3CCOCC3)cc2)c2cc[nH]c2c1=O`
Response given: 4.70

---

Reported IC50 by item:
- System: MCF-10A
- assayProcedure: Cytotoxicity against human MCF-10A PTEN-/- cells measured after 8 days
- Assay type: functional, cell-based
- conditions: 192 h
Quick note: give the figure in µM, leave out the unit.

Challenge: Item under review: `C/C=C/Cn1cc(-c2ccc(C(C)(C)O)cc2OC)c2cc[nH]c2c1=O` . Reported IC50?
Response given: 20

Challenge: How about this molecule: `C/C=C/Cn1cc(-c2ccc(C(=O)N3CCOCC3)cc2)c2cc[nH]c2c1=O`
Response given: 20

---

- assayProcedure: Cytotoxicity against human OV56 cells measured after 8 days
- Type: functional, cell-based
- conditions: OV56, 192 h
IC50 reference
Numbers only here, please. The scale is µM.

C/C=C/Cn1cc(-c2ccc(C(C)(C)O)cc2OC)c2cc[nH]c2c1=O = 20

Note: attention shifts to another entry.
Challenge: What value of IC50 has been recorded for this entry: `C/C=C/Cn1cc(-c2ccc(C(=O)N3CCOCC3)cc2)c2cc[nH]c2c1=O`
Response given: 20
